Entries annotated with measured Post-emergence action against SETVI in %
System: SETVI
Experiment: Post-emergence herbicidal action against SETVI
Format: in vivo, Setaria viridis
Conditions: dosage 20 g/ha
Respond numerically; units are % and should not be typed.

Consider the reported Post-emergence action against SETVI in % for these compounds:
// CNC(=O)c1c(C(F)(F)F)ccc(C(=O)Nc2nnco2)c1SC [Example 5-58] : Post-emergence action against SETVI in % value = 100

// CSc1c(C(=O)Nc2nnnn2C)ccc(C(F)F)c1C(=O)NC(C)C1CC1 (centres unmarked) [Example 1-353] : Post-emergence action against SETVI in % value = 100

// Cn1nnnc1NC(=O)c1ccc(C(F)(F)F)c(C(=O)NCC2CC2)c1C1CC1 [Example 1-289] : Post-emergence action against SETVI in % value = 90

// CCNC(=O)c1c(C(F)F)ccc(C(=O)Nc2nnnn2CC)c1C [Example 2-45] : Post-emergence action against SETVI in % value = 80

// CCc1c(C(=O)Nc2nnnn2CC)ccc(C(F)F)c1C(=O)NC [Example 2-277] : Post-emergence action against SETVI in % value = 90

// CCc1c(C(=O)Nc2nnnn2CC)ccc(C(F)(F)F)c1C(=O)NCC(F)F [Example 2-276] : Post-emergence action against SETVI in % value = 80

Next item in the queue.
// Cn1nnnc1NC(=O)c1ccc(C(F)(F)F)c(C(=O)NCC(F)F)c1Br [Example 1-212] : Post-emergence action against SETVI in % value = 90

All figures here come from patent US12655116B2.
